Listing of recorded melting point by entry.

Record excerpt, results attached:
> print(dat)
                                   compound         result
1  CC(C)[C@@H](NS(=O)(=O)c1ccc(NC(=O)c2ccc(-c3ccccc3)cc2)cc1)C(=O)O (hydrate or solvate) [Example 195]  254 to 256 °C
2  O=C(Nc1ccc(S(=O)(=O)N[C@H](Cc2c[nH]c3ccccc23)C(=O)O)cc1)c1ccc([N+](=O)[O-])cc1 (hydrate or solvate) [Example 180]  211 to 213 °C
3  CC(C)[C@@H](NS(=O)(=O)c1ccc(NC(=O)c2ccc([N+](=O)[O-])cc2)cc1)C(=O)O (hydrate or solvate) [Example 201]  240 to 242 °C

Next compound, melting point to be filled in.
Give the measured melting point of COc1ccc(-n2nnc(-c3ccc(S(=O)(=O)N[C@@H](C(=O)O)C(C)(C)C)cc3)n2)cc1 [Example 226] .
204 to 207 °C
